- assay system: glucocorticoid receptor (GR) (Homo sapiens)
- Construct: endogenous in cells
- Sequence (P04150 whole entry): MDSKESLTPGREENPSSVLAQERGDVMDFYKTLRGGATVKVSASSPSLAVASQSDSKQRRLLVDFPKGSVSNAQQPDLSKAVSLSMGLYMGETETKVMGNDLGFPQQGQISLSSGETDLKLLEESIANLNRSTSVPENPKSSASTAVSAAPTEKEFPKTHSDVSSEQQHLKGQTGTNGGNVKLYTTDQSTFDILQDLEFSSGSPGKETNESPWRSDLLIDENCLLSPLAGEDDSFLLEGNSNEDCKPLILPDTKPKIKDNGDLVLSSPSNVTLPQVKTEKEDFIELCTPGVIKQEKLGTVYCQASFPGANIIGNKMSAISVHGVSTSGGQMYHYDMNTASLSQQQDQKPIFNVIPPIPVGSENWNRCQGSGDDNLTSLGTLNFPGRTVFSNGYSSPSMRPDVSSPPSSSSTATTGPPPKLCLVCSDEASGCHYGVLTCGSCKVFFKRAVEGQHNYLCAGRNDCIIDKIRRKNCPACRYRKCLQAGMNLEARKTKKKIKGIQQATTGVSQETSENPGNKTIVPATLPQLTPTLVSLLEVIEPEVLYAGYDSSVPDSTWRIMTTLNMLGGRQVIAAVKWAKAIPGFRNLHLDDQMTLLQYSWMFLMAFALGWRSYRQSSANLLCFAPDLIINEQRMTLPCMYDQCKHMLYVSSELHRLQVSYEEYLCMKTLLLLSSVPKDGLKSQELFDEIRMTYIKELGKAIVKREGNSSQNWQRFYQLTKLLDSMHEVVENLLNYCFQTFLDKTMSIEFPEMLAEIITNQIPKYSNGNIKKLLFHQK
- experiment summary: GR Ligand Binding Assay (3H-dexamethasone displacement, HeLa cell lysate)
- test settings: 3H-DEX trace, DEX as reference, read-out: GR BIND Ki
- Description: Binding Buffer: TEGM (10 mM Tris-HCl, 1 mM EDTA, 10% glycerol, 1 mM beta-mecaptoethanol, 10 mM Sodium Molybdate, pH 7.2) Dexmethasone-methyl-^3H, (DEX*); (Amersham cat# TRK645) Dexamethasone(DEX) (Sigma, cat# D1756): […] 25 μL, of 3H-DEX (6 nM) trace and 25 μL compound solution are first mixed together, followed by addition of 50 μL receptor solution. […] IC50s are calculated using DEX as a reference.
measured metric: pKi
Schema: pKi number; meaning minus log10 of the concentration expressed in molar units.

Provide pKi value for the following molecule: C[C@]12Cc3cnn(-c4ccc(F)cc4)c3C=C1CC[C@@]2(CO)CC(O)c1ccccc1F (stereo partly drawn)
9.05

Provide pKi value for the following molecule: C[C@]12Cc3cnn(-c4ccc(F)cc4)c3C=C1CC[C@@]2(CO)CC(O)c1ccccc1Cl (single isomer, unassigned) [Example 3b]
9.05

Values compiled from patent US20120095055A1.
